# method.description: Half life in dog liver microsomes at 1 uM in presence of NADPH by LC-MS/MS analysis
# Assay type: ADME, Canis lupus familiaris, microsome
observable: half-life at 1 µM

compound=N#Cc1ccc(-c2cnc3ccc(-c4ccc(C(=O)N5CCOCC5)cc4)nn23)cc1 observable="half-life at 1 µM" observed_result="> 1 h"
compound="N#Cc1ccc(-c2cnc3ccc(-c4ccc(C(=O)N5CCOCC5)cc4)cn23)cc1 [TINODASERTIB]" observable="half-life at 1 µM" observed_result="> 1 h"

* * *

# method.description: Thermodynamic solubility of the compound at pH 4 to 7.4 pION buffer after 18 hrs by UV spectrophotometric analysis
# Assay type: physicochemical
# assay.setup: read-out: Therm_solubility
Overview of reported solubility thermodynamic at 18 h across a group of compounds:
observable: solubility thermodynamic at 18 h (µg/mL)

smiles_str=CN1CCN(C(=O)c2ccc(-c3cn4c(-c5ccc(C(=O)O)cc5)cnc4cn3)cc2)CC1 observable="solubility thermodynamic at 18 h" reported_relation=> observed_result=22
smiles_str=CN1CCN(C(=O)c2ccc(-c3cn4c(-c5ccc(C(F)F)cc5)cnc4cn3)cc2)CC1 observable="solubility thermodynamic at 18 h" reported_relation== observed_result=66.9
smiles_str=N#Cc1ccc(-c2cnc3ccc(-c4ccc(C(=O)N5CCNCC5)cc4)nn23)cc1 observable="solubility thermodynamic at 18 h" reported_relation== observed_result=115
smiles_str=CN1CCN(C(=O)c2ccc(-c3cn4c(-c5ccc(C(N)=O)cc5)cnc4cn3)cc2)CC1 observable="solubility thermodynamic at 18 h" reported_relation== observed_result=126
smiles_str=O=C(c1ccc(-c2cn3c(-c4ccc(O)cc4)cnc3cn2)cc1)N1CCOCC1 observable="solubility thermodynamic at 18 h" reported_relation== observed_result=11.5
smiles_str=CN1CCN(C(=O)c2ccc(-c3cn4c(-c5ccc(C#N)cc5)cnc4cn3)cc2)CC1 observable="solubility thermodynamic at 18 h" reported_relation=> observed_result=125
